Source of measurements: patent US5658917A

- target.of.assay: [^3 H]-Nitrobenzylthioinosine (NBI) binding, cerebral cortex tissue homogenate (Cavia porcellus, UniProt H0V4R7)
- Construct: The cerebral cortex of a male guinea pig of Hartley strain was homogenized
- Sequence (H0V4R7 1-461): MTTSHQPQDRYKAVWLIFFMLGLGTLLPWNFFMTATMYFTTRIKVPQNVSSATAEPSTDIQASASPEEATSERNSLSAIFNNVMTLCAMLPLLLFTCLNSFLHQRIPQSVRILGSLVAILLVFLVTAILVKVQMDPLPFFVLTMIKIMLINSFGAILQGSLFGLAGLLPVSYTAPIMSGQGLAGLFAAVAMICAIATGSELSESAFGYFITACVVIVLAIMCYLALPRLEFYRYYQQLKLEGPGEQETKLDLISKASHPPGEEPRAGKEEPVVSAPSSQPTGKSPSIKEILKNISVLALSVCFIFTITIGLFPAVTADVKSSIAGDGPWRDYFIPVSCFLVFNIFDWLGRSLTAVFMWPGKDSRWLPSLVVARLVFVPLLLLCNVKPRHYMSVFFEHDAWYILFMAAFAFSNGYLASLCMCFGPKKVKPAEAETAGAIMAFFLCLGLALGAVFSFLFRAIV
- assay.remarks: Inhibitory effect on [^3 H]-nitrobenzylthioinosine (NBI) binding
- measurement.conditions: guinea pig cerebral cortex; 1.5 nM [^3 H]-NBI; 25° C., 30 minutes; Cheng-Prusoff
pKi: −log10 of the molar value.
Below: a set of entries, each annotated with reported pKi.
property.label: pKi

smiles_text=COc1cc2ncnc(N3CCC(n4c(=O)[nH]c5ccc([N+](=O)[O-])cc5c4=O)CC3)c2cc1OC property_label=pKi assay_result=7.82
smiles_text=COc1cc2ncnc(N3CCC(n4c(=O)c5cc(Br)ccc5n(C)c4=O)CC3)c2cc1OC property_label=pKi assay_result=8.16
smiles_text=COc1ccc2c(c1)c(=O)n(C1CCN(c3ncnc4cc(OC)c(OC)cc34)CC1)c(=O)n2C property_label=pKi assay_result=7.96
smiles_text=COc1cc2ncnc(N3CCC(n4c(=O)c5cc([N+](=O)[O-])ccc5n(C)c4=O)CC3)c2cc1OC property_label=pKi assay_result=7.74
smiles_text=CCCn1c(=O)n(C2CCN(c3ncnc4cc(OC)c(OC)cc34)CC2)c(=O)c2cc([N+](=O)[O-])ccc21 property_label=pKi assay_result=8.37
smiles_text=CCn1c(=O)n(C2CCN(c3ncnc4cc(OC)c(OC)cc34)CC2)c(=O)c2cc([N+](=O)[O-])ccc21 property_label=pKi assay_result=7.74
smiles_text=COc1cc2ncnc(N3CCC(n4c(=O)c5cc(C)ccc5n(C)c4=O)CC3)c2cc1OC property_label=pKi assay_result=7.92
